Just for reference, PubChem BioAssay (NCATS) is where these values come from.

molecular target: Retinoic acid receptor RXR-alpha (Homo sapiens) (UniProt P19793); assay: qHTS assay for small molecule agonists of retinoid X receptor alpha signaling (AID 588544); conditions: HEK293T RXRa-UAS-bla, beta-lactamase reporter, 18 h; series mostly up to 76.7 µM
Sequence (P19793 whole entry, looked up): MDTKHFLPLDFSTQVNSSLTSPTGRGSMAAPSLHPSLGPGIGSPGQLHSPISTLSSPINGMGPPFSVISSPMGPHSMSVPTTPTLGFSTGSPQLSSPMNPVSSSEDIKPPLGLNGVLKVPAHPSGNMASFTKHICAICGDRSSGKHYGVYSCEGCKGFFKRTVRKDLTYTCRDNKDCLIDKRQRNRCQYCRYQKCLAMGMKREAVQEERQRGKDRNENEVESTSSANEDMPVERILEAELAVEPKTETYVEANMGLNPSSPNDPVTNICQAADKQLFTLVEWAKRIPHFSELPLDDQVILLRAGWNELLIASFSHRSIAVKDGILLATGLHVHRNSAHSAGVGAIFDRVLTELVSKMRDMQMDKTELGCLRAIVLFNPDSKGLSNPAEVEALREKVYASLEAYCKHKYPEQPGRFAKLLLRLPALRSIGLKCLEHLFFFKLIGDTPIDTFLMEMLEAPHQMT
Records with an inconclusive call do not appear. Active and inactive are the calls of the source. Calls come from the whole dose curve.
Possible outcomes: 1 (yes) for active, 0 (no) for inactive

molecule: COc1cc(C=O)ccc1O
group: 0 (no)

molecule: COC(=O)c1c(Cl)c(Cl)c(C(=O)OC)c(Cl)c1Cl
group: 0 (no)

molecule: CCCCC(CC)COC(=O)c1ccccc1C(=O)O (centres undefined)
group: 0 (no)

molecule: OCc1c[nH]c2ccccc12
group: 0 (no)

molecule: Brc1ccccc1-c1ccccc1
group: 0 (no)

molecule: OCCOCCN1CCN(C(c2ccccc2)c2ccc(Cl)cc2)CC1 (centres undefined)
group: 0 (no)

molecule: O=C(c1ccccc1)c1ccccc1
group: 0 (no)

molecule: CN1C(=O)c2ccccc2C1=O
group: 0 (no)

molecule: Cc1cc(C(C)(C)C)c(O)c(C(C)(C)C)c1
group: 1 (yes)

----------
assay: qHTS of pediatric cancer cell lines to identify multiple opportunities for drug repurposing: Confirmatory screen for BT-12 cells (AID 1347112); settings: BT-12 rhabdoid tumor cells, viability; series mostly up to 45.9 µM; note: potency is the fitted concentration of half-maximal effect;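 note: viability read after 48 h of compound exposure; nearly all actives have a fitted effect of over 55% in size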
Records with an inconclusive call do not appear. Active and inactive are the calls of the source. Calls come from the whole dose curve; as a rule, active = well fitted cell-killing curve with a large enough effect; inconclusive = small, poorly fitted or top-dose-only effect; inactive = flat fitted curve, though single readings scatter.

molecule: C[C@]12CCC(=O)C=C1CC[C@@H]1[C@@H]2[C@@H](O)C[C@@]2(C)[C@H]1CC[C@]2(O)C(=O)COC(=O)CCC(=O)O
Potency: inactive
//
molecule: CC(C)(C)CC(=O)OCC(=O)[C@@]1(O)CC[C@H]2[C@@H]3CCC4=CC(=O)C=C[C@]4(C)[C@H]3[C@@H](O)C[C@@]21C
Potency: inactive
//
molecule: CC[C@@]1(O)C(=O)OCc2c1cc1n(c2=O)Cc2c-1nc1ccccc1c2/C=N/OC(C)(C)C
Potency: 1040 nM (active)
//
molecule: Nc1c2ccccc2nc2ccccc12
Potency: 3690 nM (active)
//
molecule: CCc1cc2cc(OC)c(OC)cc2c(Cc2ccccc2)n1
Potency: inactive
//
molecule: Cc1ccc(C(=O)Oc2ccc(C(O)CNC(C)(C)C)cc2OC(=O)c2ccc(C)cc2)cc1 (centres undefined)
Potency: inactive
//
molecule: CC(=O)OCC(=O)[C@@]1(O)CCC2C3CCC4=CC(=O)CC[C@]4(C)C3[C@@H](O)C[C@@]21C (some centres undefined)
Potency: inactive
//
molecule: CC(=O)O[C@@H]1C(=O)O[C@@H]2[C@H]1OC(=O)[C@@H]2OC(C)=O
Potency: inactive
//
molecule: CO[C@@H]1[C@@H](OC)[C@H](C)[C@@](O)(CC(=O)O)O[C@H]1[C@H](C)[C@H]1O[C@@]2(CC[C@@](C)([C@H]3CC[C@@](C)([C@@H]4O[C@@H]([C@H]5O[C@](C)(O)[C@H](C)C[C@@H]5C)C[C@@H]4OC4C[C@H](OC)[C@@H](OC)[C@H](C)O4)O3)O2)C[C@H](O)[C@H]1C (some centres undefined)
Potency: 657 nM (active)

----------
molecular target: N-terminal Xaa-Pro-Lys N-methyltransferase 1 (Homo sapiens) (UniProt Q9BV86); assay: qHTS Assay for Inhibitors of N-terminal methyltransferase 1 (NTMT1): LOPAC validation of the NTMT1 SAHH-coupled ThioGlo3 Assay (AID 1347143); details: recombinant NTMT1, SAHH-coupled ThioGlo3 fluorescence; series mostly up to 114 µM;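 note: SAH from peptide methylation measured as thiol fluorescence via SAHH coupling and ThioGlo3; nearly all actives have a fitted effect of over 70% in size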
Sequence (Q9BV86 whole entry, looked up): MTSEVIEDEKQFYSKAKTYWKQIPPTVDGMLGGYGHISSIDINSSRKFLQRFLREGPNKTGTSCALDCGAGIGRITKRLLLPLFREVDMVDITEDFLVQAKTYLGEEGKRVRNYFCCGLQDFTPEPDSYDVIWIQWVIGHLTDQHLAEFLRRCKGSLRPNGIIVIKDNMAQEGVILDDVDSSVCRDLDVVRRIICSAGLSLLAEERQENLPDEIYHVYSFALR
Results filed as inconclusive are left out. Activity calls are given as the source filed them. Calls come from the whole dose curve; as a rule, active = well fitted inhibition curve with a large enough effect; inconclusive = small, poorly fitted or top-dose-only effect; inactive = no such curve, though single readings can be large or run the other way.
Classes used: y for active, n for inactive

smiles.representation: N[C@@H](Cn1ccc(=O)c(O)c1)C(=O)O
measurement.target: N-terminal Xaa-Pro-Lys N-methyltransferase 1 (Homo sapiens) (UniProt Q9BV86)
group: n
--
smiles.representation: Brc1ccc([C@H]2CN3CCSC3=N2)cc1
measurement.target: N-terminal Xaa-Pro-Lys N-methyltransferase 1 (Homo sapiens) (UniProt Q9BV86)
group: y
--
smiles.representation: COC(=O)C1=CO[C@@H](O)[C@@H]2C(CO)=CC[C@H]12
measurement.target: N-terminal Xaa-Pro-Lys N-methyltransferase 1 (Homo sapiens) (UniProt Q9BV86)
group: n
--
smiles.representation: CC(C)N(CCC(=O)c1ccc2ccccc2c1)Cc1ccccc1
measurement.target: N-terminal Xaa-Pro-Lys N-methyltransferase 1 (Homo sapiens) (UniProt Q9BV86)
group: n
--
smiles.representation: CCN(CC)CCNC(=O)c1ccc(NS(C)(=O)=O)cc1
measurement.target: N-terminal Xaa-Pro-Lys N-methyltransferase 1 (Homo sapiens) (UniProt Q9BV86)
group: n
--
smiles.representation: Cn1cnc2c(NCc3ccccc3)nc(NCCO)nc21
measurement.target: N-terminal Xaa-Pro-Lys N-methyltransferase 1 (Homo sapiens) (UniProt Q9BV86)
group: n
--
smiles.representation: O=C1NC(c2cccc([N+](=O)[O-])c2)=CCN1c1ccccc1O
measurement.target: N-terminal Xaa-Pro-Lys N-methyltransferase 1 (Homo sapiens) (UniProt Q9BV86)
group: y
--
smiles.representation: COc1ccccc1N1CCN(CCN2C(=O)CC3(CCCC3)CC2=O)CC1
measurement.target: N-terminal Xaa-Pro-Lys N-methyltransferase 1 (Homo sapiens) (UniProt Q9BV86)
group: y

----------
experiment: Drug repurposing screens with cells derived from glioblastoma tumor samples (AID 1345199); conditions: GBM patient neurospheres viability, ATP luminescence, 48 h; at 46 µM (top of the series); tumour line A; note: % is set by controls: 0 for no effect and ±100 for the full control effect; nearly all actives have a fitted effect of over 40% in size
Inconclusive results are not listed.

compound: CCOC(=O)OCC/C(SC(=O)OCC)=C(\C)N(C=O)Cc1cnc(C)nc1N
activity, negative = cell killing / %: -26
--
compound: CC(=O)Nc1c(I)c(NC(C)=O)c(I)c(C(=O)O)c1I
activity, negative = cell killing / %: -18.7
--
compound: CC(=O)OCC(=O)[C@@]1(O)[C@H](OC(C)=O)C[C@H]2[C@@H]3CCC4=CC(=O)C=C[C@]4(C)[C@@]3(F)[C@@H](O)C[C@@]21C
activity, negative = cell killing / %: -9.78
--
compound: CCOC(=O)NNc1ccc(N(CC)CC(C)O)nn1 (stereo not drawn)
activity, negative = cell killing / %: -25.2
--
compound: CN1C(=O)CC(C)(c2ccccc2)C1=O (stereo not drawn)
activity, negative = cell killing / %: -33.9
--
compound: NCC(=O)O
activity, negative = cell killing / %: 1.41
--
compound: O=C(O)CNC(=O)CNC(=O)CNC(=O)CSC(=O)c1ccccc1
activity, negative = cell killing / %: -23.1
--
compound: CC(C)C[C@H](NC(=O)CNC(=O)[C@H](Cc1ccc(O)cc1)NC(=O)[C@H](CO)NC(=O)[C@H](Cc1c[nH]c2ccccc12)NC(=O)[C@H](Cc1cnc[nH]1)NC(=O)[C@@H]1CCC(=O)N1)C(=O)N[C@@H](CCCN=C(N)N)C(=O)N1CCC[C@H]1C(=O)NCC(N)=O (stereo in doubt)
activity, negative = cell killing / %: -26

----------
system: SKOV3; experiment: Primary qHTS to identify gynecologic anti-cancer compounds using libraries of approved drugs and bioactive compounds (AID 1345084); conditions: Gynecologic cancer cell panel viability, ATPlite luminescence, 48 h; series mostly up to 57.5 µM; note: nearly all actives have a fitted effect of over 55% in size
Records with an inconclusive call do not appear. Activity calls are given as the source filed them. The call rests on the fitted dose curve; in most records, active means well fitted cell-killing curve with a large enough effect; inconclusive means small, poorly fitted or top-dose-only effect, or effect the other way; inactive means flat fitted curve, though single readings scatter.
Labels: y (active), n (inactive)

molecule: CC(=O)CC/C=C(\C)CC/C=C(\C)CC/C=C(\C)CCC=C(C)C
group: n

molecule: CN(C)CCN1CCN(c2cccc(Cl)c2)C1=O
group: n

molecule: CCCCCCCCCCCC[N+](C)(C)Cc1ccccc1
group: y

molecule: Cc1nn(-c2ccccc2)c(C)c1/C=N/N1CCN(Cc2ccccc2)CC1
group: n

molecule: O=C(NO)c1ccccc1
group: n

molecule: Cc1nc2n(c(=O)c1CCN1CCC(C(=O)c3ccc(F)cc3)CC1)CCS2
group: n

molecule: CSCC[C@H](NC(=O)[C@H](Cc1c[nH]c2ccccc12)NC(=O)CCNC(=O)OC(C)(C)C)C(=O)N[C@@H](CC(=O)O)C(=O)N[C@@H](Cc1ccccc1)C(N)=O
group: n

molecule: O=c1[nH]c2ccccc2c(=O)n1CCCl
group: n

molecule: CCN1C(=O)c2ccccc2C1Nc1ccc(OCCN2CCCCC2)cc1 (stereo not drawn)
group: n

molecule: O=C(Nc1ccc(S(=O)(=O)N2CCOCC2)cc1)c1cc(Cl)ccc1NS(=O)(=O)c1ccc(Cl)s1
group: n

molecule: COc1cc(OC)nc(O[C@H](C(=O)O)C(OC)(c2ccccc2)c2ccccc2)n1
group: n

molecule: CCN(CC)C(=O)C1CN2CCc3cc(OC)c(OC)cc3C2CC1OC(C)=O (stereo not drawn)
group: n

molecule: C=C(C)C(=O)OCC(O)CO (stereo not drawn)
group: n

molecule: CCN(CC)CC(=O)Nc1c(C)cccc1C(=O)OC
group: n

molecule: NS(=O)(=O)c1cc(C(=O)NN2C[C@H]3[C@H]4CCC(C4)[C@H]3C2)ccc1Cl
group: n

molecule: Cc1nc(N)nc(N)c1-c1ccc(Cl)c(Cl)c1
group: n

molecule: COC(=O)c1cc(Cl)ccc1NS(=O)(=O)C(F)(F)F
group: n

molecule: CO/N=C(/C(=O)N[C@@H]1C(=O)N2C(C(=O)OCOC(=O)C(C)(C)C)=C(C)CS[C@H]12)c1csc(N)n1
group: n

molecule: CC(=O)/C=C/C=C1/C2CCC(C2)C1(C)C (stereo not drawn)
group: n

molecule: O=[N+]([O-])c1nccn1CO[C@@H](CO)[C@H](O)CO
group: n

molecule: CC(C)CCCC(C)NCCC(C)C (stereo not drawn)
group: n

molecule: O=C(CCCl)NCc1ccccc1
group: n

molecule: O=C(O)c1cn(C2CC2)c2cc(Cl)c(F)cc2c1=O
group: n
